// data source = paper PMC7662280

- Tested Target: eel AChE (Electrophorus electricus)
- Construct: purchased Sigma-Aldrich Type VI-S
- Sequence (O42275 24-633): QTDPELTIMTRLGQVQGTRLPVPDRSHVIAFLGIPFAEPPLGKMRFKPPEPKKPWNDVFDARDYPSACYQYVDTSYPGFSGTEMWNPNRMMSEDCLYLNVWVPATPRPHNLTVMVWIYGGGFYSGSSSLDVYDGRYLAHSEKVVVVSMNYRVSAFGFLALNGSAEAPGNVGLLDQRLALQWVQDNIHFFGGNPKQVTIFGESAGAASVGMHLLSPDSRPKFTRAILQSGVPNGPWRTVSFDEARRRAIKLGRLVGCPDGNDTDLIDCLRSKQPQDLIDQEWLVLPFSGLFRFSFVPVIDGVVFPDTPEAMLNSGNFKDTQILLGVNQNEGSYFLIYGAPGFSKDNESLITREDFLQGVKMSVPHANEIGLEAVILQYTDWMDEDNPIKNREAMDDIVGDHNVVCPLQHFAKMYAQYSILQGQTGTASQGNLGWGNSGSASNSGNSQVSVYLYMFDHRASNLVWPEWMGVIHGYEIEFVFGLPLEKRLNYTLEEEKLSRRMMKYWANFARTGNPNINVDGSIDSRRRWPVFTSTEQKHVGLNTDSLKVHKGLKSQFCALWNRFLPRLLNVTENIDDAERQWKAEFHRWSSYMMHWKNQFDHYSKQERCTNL
- Assay Remarks: biochemical
- Test Parameters: 100 μM, n.a. = no activity under the experimental conditions, read-out: AChE (% Inhibition at 100 μM) ± SEM
Metric Name: inhibition at 100 µM

Worked cases, answers included:
# Chem Smiles, inhibition at 100 µM
measured = [
    ("O=C1/C(=C/c2ccc(F)cc2)CN(C(=O)/C=C/c2cccc3ccccc23)C/C1=C\\c1ccc(F)cc1", "24%"),
    ("O=C1/C(=C/c2ccccc2)CN(C(=O)/C=C/c2cccc3ccccc23)C/C1=C\\c1ccccc1", "17%"),
]

Exercise: Provide one value: measured inhibition at 100 µM of O=C1/C(=C/c2cccc3ccccc23)CC/C1=C\c1cccc2ccccc12
Key: 36%

Exercise: For the compound O=C1/C(=C/c2cccc3ccccc23)CN(C(=O)/C=C/c2cccc3ccccc23)C/C1=C\c1cccc2ccccc12 , report inhibition at 100 µM.
Key: 29%

Exercise: Please indicate inhibition at 100 µM recorded for O=C1/C(=C/c2ccc(F)cc2)CN(C(=O)C=Cc2ccccc2)C/C1=C\c1ccc(F)cc1
Key: 31%

Exercise: Please indicate inhibition at 100 µM recorded for O=C1/C(=C/c2cc3ccccc3o2)CNC/C1=C\c1cc2ccccc2o1
Key: 16.5%

Exercise: Retrieve inhibition at 100 µM measured for O=C1/C(=C/c2cccc3ccccc23)CN(C(=O)/C=C/c2ccc(O)c(O)c2)C/C1=C\c1cccc2ccccc12 and print it.
Key: 14 to 34%

Exercise: Please give the documented inhibition at 100 µM of O=C1/C(=C/c2cccc3ccccc23)CSC/C1=C\c1cccc2ccccc12
Key: 18%

Exercise: Item O=C1/C(=C/c2cccc3ccccc23)COC/C1=C\c1cccc2ccccc12 : provide inhibition at 100 µM
Key: 32%
